molecular target: T1, P3028 (VFDEFKPLVEEPQNLIK, SEQ ID NO: 185), His-tagged (human); experiment: PEPSCAN ELISA; peptide on chip, His-P3028 added;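 further: peroxidase color development with ABTS and H2O2 substrate, OD405 imaged by CCD camera with image processing and taken as raw values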
T1 construct: Synthetic fragment of human serum albumin (positions 397-413); used in solution as His-tagged peptide PGE73; also called PGE73; not shown: His-tag
T1 peptide: VFDEFKPLVEEPQNLIK
Classify as follows. Reported RAMPO Score greater than or equal to 400 rampo units: true. Reported RAMPO Score below: false.

Q: Given the entry PKLDTFFVKLSLFTER [PKLDTFFVKLSLFTER (SEQ ID NO: 277)] , answer whether its RAMPO Score meets or surpasses 400 rampo units.
Result: false
